Assignment: determine reported pKi for the given binders.
# target desc: T1, cynomolgus IL4Rα/Fc HIS6 (HEK expressed) (cynomolgus monkey)
# T1 construct: also called Cyno IL4R; cynomolgus IL-4Rα HIS Fc (in house HEK-EBNA derived); not shown: HIS6 tag
# T1 sequence (chain, as listed by the source): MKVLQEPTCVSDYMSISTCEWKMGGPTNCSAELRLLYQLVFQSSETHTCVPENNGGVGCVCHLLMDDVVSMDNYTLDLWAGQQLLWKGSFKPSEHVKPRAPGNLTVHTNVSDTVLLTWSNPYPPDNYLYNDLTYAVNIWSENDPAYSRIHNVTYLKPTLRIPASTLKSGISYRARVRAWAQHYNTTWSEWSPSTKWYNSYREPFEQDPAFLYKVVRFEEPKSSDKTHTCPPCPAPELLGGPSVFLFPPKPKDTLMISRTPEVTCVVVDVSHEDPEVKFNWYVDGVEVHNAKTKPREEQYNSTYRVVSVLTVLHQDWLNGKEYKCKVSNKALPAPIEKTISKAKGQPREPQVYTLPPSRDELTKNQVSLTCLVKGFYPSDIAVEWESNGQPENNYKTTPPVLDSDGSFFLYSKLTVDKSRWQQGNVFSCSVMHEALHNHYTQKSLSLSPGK
# method summary: HTRF receptor-ligand assay, purified scFv against biotinylated cynomolgus IL4
Numbers only, as −log10 of the molar value.

| binder | pKi |
| --- | --- |
| Antibody 15 scFv (scFv, V domains shown, tested as purified scFv) VH: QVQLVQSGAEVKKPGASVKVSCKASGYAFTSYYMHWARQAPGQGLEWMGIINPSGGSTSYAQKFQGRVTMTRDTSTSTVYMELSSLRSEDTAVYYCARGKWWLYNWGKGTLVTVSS VL: QSVLTQPPSVSAAPGQKVTISCSGGSSNIGNSYVSWYQQLPGTAPKLLIYDNNKRPSGIPDRFSGSKSGTSATLAITGLQTGDEADYYCGTWDTSTHRHPLFGTGTKLTVL | 7.49 |

We now examine a further binder.
Name the recorded pKi of the binder listed here: Antibody 35 scFv (scFv, V domains shown, tested as purified scFv) VH: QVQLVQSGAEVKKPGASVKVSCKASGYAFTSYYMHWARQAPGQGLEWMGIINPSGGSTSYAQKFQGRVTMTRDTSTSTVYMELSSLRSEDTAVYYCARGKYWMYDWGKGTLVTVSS VL: QSVLTQPPSVSAAPGQKVTISCSGGSSNIGNSYVSWYQQLPGTAPKLLIYDNNKRPSGIPDRFSGSKSGTSATLAITGLQTGDEADYYCGTWDTSPVWEWPFGTGTKLTVL
8.59

// provenance: patent US20180057596A1
